For each entry below, report its half-life at 20 µM value.
Experiment: Half life in rat liver microsomes at 20 uM preincubated for 15 mins followed by NADPH generating system addition and measured by LC-MS/MS analysis
Type: ADME, Microsome
Answers are plain numbers, in h.

Please give half-life at 20 µM for each item listed below.
1. CCC(O)CNC(=O)COc1c(C)cccc1C (configuration not stated)
2. Cc1cccc(C)c1OCC(=O)N[C@H](C)CO

Reply |
0.507
3.04
